Measured values drawn from ChEMBL document CHEMBL1145313 for this set.

Below are molecules with their pIC50 as measured on Mu-type opioid receptor (Rattus norvegicus, UniProt P33535).
Sequence (P33535 whole entry): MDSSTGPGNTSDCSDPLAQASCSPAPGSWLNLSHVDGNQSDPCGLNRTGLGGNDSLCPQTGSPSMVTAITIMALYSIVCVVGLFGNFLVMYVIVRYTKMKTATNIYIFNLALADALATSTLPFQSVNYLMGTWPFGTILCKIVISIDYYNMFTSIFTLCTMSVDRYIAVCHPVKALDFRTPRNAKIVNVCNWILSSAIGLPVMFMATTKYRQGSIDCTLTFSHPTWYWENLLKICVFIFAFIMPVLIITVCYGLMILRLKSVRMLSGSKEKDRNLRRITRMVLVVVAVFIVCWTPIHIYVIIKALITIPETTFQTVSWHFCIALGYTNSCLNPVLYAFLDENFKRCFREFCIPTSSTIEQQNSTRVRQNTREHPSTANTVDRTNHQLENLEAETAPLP
When answering, recall that pIC50 equals minus log10 of the concentration in mol/L, and write that number alone.

# count of solved cases: 5
INSERT INTO measurements (smiles, observed_result) VALUES
  ('CCN[C@H](CN[C@H](CN[C@H](CN)Cc1ccc(O)cc1)Cc1ccc(O)cc1)Cc1ccc(O)cc1', 6.86),
  ('CCN[C@H](CN[C@H](CN[C@@H](Cc1ccccc1)CN1CCC[C@H]1CN[C@H](CN[C@H](CN)Cc1ccc(O)cc1)Cc1ccc(O)cc1)Cc1ccc(O)cc1)Cc1ccc(O)cc1', 7.57),
  ('CNC[C@@H](Cc1ccccc1)N(C)C[C@H](Cc1ccc(O)cc1)N(C)C[C@@H](N)Cc1ccc(O)cc1', 7.43),
  ('CCN[C@H](CN[C@H](CN[C@@H](Cc1ccccc1)CN1CCC[C@H]1CN[C@@H](CN[C@H](CN)CCSC)[C@@H](C)O)Cc1ccc(O)cc1)Cc1ccc(O)cc1', 7.85),
  ('CCN[C@H](CN[C@H](CN[C@H](CN[C@H](CN[C@@H](CN1CCC[C@H]1CN)[C@@H](C)O)Cc1ccccc1)Cc1ccccc1)Cc1ccc(O)cc1)Cc1ccc(O)cc1', 7.09);

Tested system Mu-type opioid receptor (Rattus norvegicus, UniProt P33535); pIC50 recorded for `CCN[C@H](CN[C@H](CN[C@H](CN[C@H](CN[C@H](CN[C@H](CN)CCSC)Cc1ccc(O)cc1)Cc1ccccc1)Cc1ccccc1)Cc1ccc(O)cc1)Cc1ccc(O)cc1` was 6.90

Tested on Mu-type opioid receptor (Rattus norvegicus, UniProt P33535): `CN(C)[C@@H](Cc1ccc(O)cc1)CN(C)[C@H](CNCc1ccccc1)Cc1ccc(O)cc1` . Observed pIC50: 7.42

I looked up `CCN[C@H](CN[C@H](CN[C@@H](Cc1ccccc1)CN1CCC[C@H]1CN[C@@H](CN1CCC[C@H]1CN)[C@@H](C)O)Cc1ccc(O)cc1)Cc1ccc(O)cc1` and its pIC50 for Mu-type opioid receptor (Rattus norvegicus, UniProt P33535) was 7.82

Reported Mu-type opioid receptor (Rattus norvegicus, UniProt P33535) pIC50 for item `CCN[C@H](CN[C@H](CN[C@@H](Cc1ccccc1)CN1CCC[C@H]1CN[C@H](CN[C@H](CN)Cc1ccccc1)Cc1ccc(O)cc1)Cc1ccc(O)cc1)Cc1ccc(O)cc1` was 7.57

Entry `CNC[C@H](Cc1ccc(O)cc1)N(Cc1ccccc1)C[C@@H](N)Cc1ccc(O)cc1` ; assay system Mu-type opioid receptor (Rattus norvegicus, UniProt P33535); pIC50 recorded at 6.05

pIC50 on Mu-type opioid receptor (Rattus norvegicus, UniProt P33535) for `CCN[C@H](CN[C@H](CN[C@H](CN[C@H](CN[C@H](CN[C@H](CN)Cc1ccc(O)cc1)Cc1ccc(O)cc1)Cc1ccccc1)Cc1ccccc1)Cc1ccc(O)cc1)Cc1ccc(O)cc1` is 7.02

Observed pIC50 on Mu-type opioid receptor (Rattus norvegicus, UniProt P33535), entry `CCN[C@H](CN[C@H](CN[C@H](CN[C@H](CN[C@@H](Cc1ccc(O)cc1)CN1CCC[C@H]1CN)Cc1ccccc1)Cc1ccc(O)cc1)Cc1ccc(O)cc1)Cc1ccc(O)cc1` , equals 6.83

The measured pIC50 that `CCN[C@H](CN[C@H](CN[C@@H](Cc1ccc(O)cc1)CN1CCC[C@H]1CN[C@@H](CN[C@H](CN)Cc1ccccc1)[C@@H](C)O)Cc1ccc(O)cc1)Cc1ccc(O)cc1` showed for Mu-type opioid receptor (Rattus norvegicus, UniProt P33535) is 6.89
